Reference for the values: paper PMC9774391

- assay-explanation: Cytotoxicity test (MTT)
- Type: cell-based
- test-context: NIH/3T3 mouse embryonic fibroblast cells (ATCC CRL-1658), NIH/3T3 mouse fibroblast healthy cell line
# key: entry, value: pIC50
Schema: pIC50 number; meaning minus log10 of the concentration expressed in molar units.

The cases that follow already have their pIC50 on record.
COc1ccc2c(c1)C/C(=C\c1ccc(NC(=O)CN3CCN(CCCO)CC3)cc1)C2=O [D19]; 4.98
COc1cc2c(cc1OC)C(=O)/C(=C/c1ccc(NC(=O)CN3CCN(CCCN(C)C)CC3)cc1)C2 [D27]; 4.98
CCN(CC)CCN(CC)CC(=O)Nc1ccc(/C=C2\Cc3cc(OC)ccc3C2=O)cc1 [D40]; 5.16

Consider now this further compound.
# input compound: COc1ccc2c(c1)C/C(=C\c1ccc(NC(=O)CN(C)CCCN(C)C)cc1)C2=O [D37] ; wanted: its pIC50
5.64
